Source listed as patent US20250289789A1.

Biological target: CDK2-NanoLuc fusion with CCNE1 in 293T or 293 cells (Homo sapiens)
Construct: host or cells: 293T (ATCC CRL-3216) or 293 (ATCC CRL-1573)
Assay: NanoBRET Target Engagement (TE) Intracellular Kinase Assay, CDK2/CCNE1
Format: cell-based
Conditions: NanoBRET TE intracellular kinase assay, 2-hour incubation, read-out: NanoBRET-CDK2/E1 IC50
Reported Property: IC50 (nM)

{"Compound": "COc1ccc(OCC(=O)Nc2cc([C@H]3CC[C@@H](OC(=O)NC(C)C)C3)[nH]n2)c(C=O)c1O", "IC50, nM": 25.4}
{"Compound": "COc1cc(O)c(C=O)c(OCC(=O)Nc2cc([C@H]3CC[C@@H](OC(=O)N[C@H]4C[C@@H](C#N)C4)C3)[nH]n2)c1", "IC50, nM": 4.71}
{"Compound": "COc1cc(O)c(C=O)c(OCC(=O)Nc2cc([C@H]3CC[C@@H](OC(=O)NC(C)(C)C)C3)[nH]n2)c1", "IC50, nM": 2.42}
{"Compound": "COc1cc(O)c(C=O)c(OCC(=O)Nc2cc([C@H]3CC[C@@H](OC(=O)N4CC[C@@H](F)C4)C3)[nH]n2)c1", "IC50, nM": 1.54}
{"Compound": "CC(C)NC(=O)O[C@@H]1CC[C@H](c2cc(NC(=O)[C@H]3C[C@H](c4cccc(O)c4C=O)C3)n[nH]2)C1", "IC50, nM": 4.4}

I = CC(C)NC(=O)O[C@@H]1CC[C@H](c2cc(NC(=O)[C@@H]3Cc4ccc(O)c(C=O)c4C3)n[nH]2)C1 [Compound 256]
II = CC[C@H](C)NC(=O)O[C@@H]1CC[C@H](c2cc(NC(=O)COc3cc(OC)cc(O)c3C=O)n[nH]2)C1
III = CC(C)NC(=O)O[C@@H]1CC[C@H](c2cc(NC(=O)COc3cccc(NS(C)(=O)=O)c3C=O)n[nH]2)C1
Exercise: # ascending order, key=IC50 As an answer, provide the labels arranged in the order called for.
Solution: II, I, III
(II: 1.5 nM, I: 3.76 nM, III: 24.5 nM)

a = COC[C@H](C)NC(=O)O[C@@H]1CC[C@H](c2cc(NC(=O)COc3cc(OC)cc(O)c3C=O)n[nH]2)C1
b = COc1cc(O)c(C=O)c(OCC(=O)Nc2cc([C@H]3CC[C@@H](OC(=O)N4CCC(F)(F)C4)C3)[nH]n2)c1
Exercise: When the recorded IC50 values are compared, which is smaller: that of a or that of b ? Your choice should be expressed through its label.
Solution: b
(b: 2.78 nM, a: 5.07 nM)

a = O=Cc1c(O)cccc1OCC(=O)Nc1cc([C@H]2CC[C@@H](OC(=O)NC3CCCC3)C2)[nH]n1
b = COc1cc(O)c(C=O)c(OCC(=O)Nc2cc([C@H]3CC[C@@H](OC(=O)N4CC[C@H]4C#N)C3)[nH]n2)c1 (stereo in doubt)
Exercise: When the recorded IC50 values are compared, which is smaller: that of a or that of b ? Your choice should be expressed through its label.
Solution: a
(a: 3.47 nM, b: 9.62 nM)

A = O=Cc1c(O)cccc1OCC(=O)Nc1cc([C@H]2CC[C@@H](OC(=O)NC3CC3)C2)[nH]n1
B = COc1cc(O)c(C=O)c2c1CC(C(=O)Nc1cc([C@H]3CC[C@@H](OC(=O)NC(C)(C)C)C3)[nH]n1)C2 (single isomer, unassigned)
Exercise: When the recorded IC50 values are compared, which is smaller: that of A or that of B ? Your choice should be expressed through its label.
Solution: B
(B: 2.01 nM, A: 3.73 nM)

a = Cc1cc(O)c(C=O)c(OCC(=O)Nc2cc([C@H]3CC[C@@H](OC(=O)NC(C)C)C3)[nH]n2)c1
b = CC(C)NC(=O)O[C@@H]1CC[C@H](c2cc(NC(=O)C3CCN(c4cccc(O)c4C=O)CC3)n[nH]2)C1
Exercise: Determine, for a and b , which has the greater value of IC50. Your choice should be expressed through its label.
Solution: b
(b: 16.3 nM, a: 3.06 nM)
